Source listed as patent US8362000B2.

pIC50: −log10 of the molar value.
Dear all, this message contains pIC50 results, target or system purified wild type MGL (wt-MGLL 6H-11-313) (Homo sapiens, UniProt Q99685).

molecule: O=C(c1nccs1)N1CCN(C2CN(C(=O)c3sc4cc(F)ccc4c3C3CCC3)C2)CC1 [Cpd 695]
pIC50: 7.24

molecule: O=C(c1ccccc1)N1CCN(C2CN(C(=O)c3ccc(Oc4cccnc4)cc3)C2)CC1 [Cpd 527]
pIC50: 5.07

molecule: Cc1cc(-c2ccc(Cl)c(C(F)(F)F)c2)ccc1C(=O)N1CC(N2CCN(C(=O)c3ccccc3)CC2)C1 [Cpd 256]
pIC50: 7.87

molecule: O=C(Cn1ccc2cc(C(=O)N3CC(N4CCN(C(=O)c5nccs5)CC4)C3)ccc21)N1CCCC1 [Cpd 1035]
pIC50: 5.34

molecule: O=C(c1ccc(Oc2cccc(C(F)(F)F)c2)nc1)N1CC(N2CCN(C(=O)c3cscn3)CC2)C1 [Cpd 689]
pIC50: 7.35

molecule: Cn1ccc2cc(C(=O)N3CC(N4CCN(C(=O)c5nccs5)CC4)C3)cc(-c3ccc(F)cc3)c21 [Cpd 1101]
pIC50: 7.92

molecule: O=C(c1ccc2c(N3CCSCC3)ncnc2c1)N1CC(N2CCN(C(=O)c3nccs3)CC2)C1 [Cpd 951]
pIC50: 6.27

molecule: O=C(c1ccc2c(ccn2-c2ccc(F)cc2)c1)N1CC(N2CCN(C(=O)c3ccc(Cl)s3)CC2)C1 [Cpd 1423]
pIC50: 6.56

----------
# systemName: mutant MGL (Homo sapiens, UniProt Q99685, L169S/L176S)
# Sequence (Q99685 whole entry L169S/L176S): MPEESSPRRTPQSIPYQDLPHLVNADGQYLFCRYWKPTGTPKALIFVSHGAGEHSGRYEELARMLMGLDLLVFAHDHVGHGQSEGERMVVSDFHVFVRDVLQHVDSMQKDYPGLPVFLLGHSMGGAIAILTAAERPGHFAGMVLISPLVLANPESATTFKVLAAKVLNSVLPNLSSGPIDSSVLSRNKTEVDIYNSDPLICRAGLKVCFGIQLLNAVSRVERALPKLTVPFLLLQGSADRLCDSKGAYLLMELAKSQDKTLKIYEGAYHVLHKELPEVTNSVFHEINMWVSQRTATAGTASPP
# protocol: MGL ThermoFluor assay - mutant
# Assay type: binding
# recordedConditions: ThermoFluor, compound concentration measured by qNMR, read-out: MGL mutant ThermoFluor qKd (μM) (using qNMR conc.)
Output yes (1) for records whose Kd is lower than 0.07 µM, no (0) for records at or above 0.07 µM.

itemSmiles: O=C(c1ccccc1)N1CCN(C2CN(C(=O)c3cc(-c4cccc(F)c4)c4[nH]ccc4c3)C2)CC1
systemName: mutant MGL (Homo sapiens, UniProt Q99685, L169S/L176S)
qualitativeLabel: no (0)
--
itemSmiles: O=C(c1ccc2nc(-c3ccc(F)c(F)c3)oc2c1)N1CC(N2CCN(C(=O)c3nccs3)CC2)C1
systemName: mutant MGL (Homo sapiens, UniProt Q99685, L169S/L176S)
qualitativeLabel: yes (1)
--
itemSmiles: O=C(c1ccc(-c2cccc(C(F)(F)F)c2)cc1)N1CC(N2CCN(C(=O)c3ccc(Br)o3)CC2)C1
systemName: mutant MGL (Homo sapiens, UniProt Q99685, L169S/L176S)
qualitativeLabel: yes (1)
--
itemSmiles: O=C(c1cc(-c2cccc(C(F)(F)F)c2)cs1)N1CC(N2CCN(C(=O)c3nccs3)CC2)C1
systemName: mutant MGL (Homo sapiens, UniProt Q99685, L169S/L176S)
qualitativeLabel: yes (1)
--
itemSmiles: O=C(c1ccc2nn(-c3cccc(OC(F)(F)F)c3)cc2c1)N1CC(N2CCN(C(=O)c3cscn3)CC2)C1
systemName: mutant MGL (Homo sapiens, UniProt Q99685, L169S/L176S)
qualitativeLabel: no (0)
--
itemSmiles: O=C(c1cc(Br)cs1)N1CC(N2CCN(C(=O)c3nccs3)CC2)C1
systemName: mutant MGL (Homo sapiens, UniProt Q99685, L169S/L176S)
qualitativeLabel: no (0)
--
itemSmiles: O=C(c1ccc2c(cnn2-c2cccc(OC(F)(F)F)c2)c1)N1CC(N2CCN(C(=O)c3nccs3)CC2)C1
systemName: mutant MGL (Homo sapiens, UniProt Q99685, L169S/L176S)
qualitativeLabel: yes (1)
--
itemSmiles: O=C(c1nccs1)N1CCN(C2CN(C(=O)c3sc4cc(F)c(C(F)(F)F)cc4c3Cl)C2)CC1
systemName: mutant MGL (Homo sapiens, UniProt Q99685, L169S/L176S)
qualitativeLabel: yes (1)
--
itemSmiles: Cc1cc(-n2ccc3cc(C(=O)N4CC(N5CCN(C(=O)c6nccs6)CC5)C4)ccc32)ccc1C#N
systemName: mutant MGL (Homo sapiens, UniProt Q99685, L169S/L176S)
qualitativeLabel: yes (1)
--
itemSmiles: O=C(c1cscn1)N1CCN(C2CN(C(=O)c3cn(-c4cccc(F)c4)c4ccccc34)C2)CC1
systemName: mutant MGL (Homo sapiens, UniProt Q99685, L169S/L176S)
qualitativeLabel: no (0)
--
itemSmiles: N#Cc1ccccc1-n1ccc2cc(C(=O)N3CC(N4CCN(C(=O)c5ccccc5)CC4)C3)ccc21
systemName: mutant MGL (Homo sapiens, UniProt Q99685, L169S/L176S)
qualitativeLabel: no (0)
--
itemSmiles: Cc1noc(C)c1-c1ccc2cc(C(=O)N3CC(N4CCN(C(=O)c5nccs5)CC4)C3)[nH]c2c1
systemName: mutant MGL (Homo sapiens, UniProt Q99685, L169S/L176S)
qualitativeLabel: no (0)
--
itemSmiles: O=C(c1ccc(-c2cccc(C(F)(F)F)c2)cc1)N1CC(N2CCN(C(=O)c3cnco3)CC2)C1
systemName: mutant MGL (Homo sapiens, UniProt Q99685, L169S/L176S)
qualitativeLabel: yes (1)
--
itemSmiles: O=C(c1ccc2c(cnn2-c2ccc(C(F)(F)F)cc2)c1)N1CC(N2CCN(C(=O)c3nccs3)CC2)C1
systemName: mutant MGL (Homo sapiens, UniProt Q99685, L169S/L176S)
qualitativeLabel: yes (1)
--
itemSmiles: Cn1ccc2cc(C(=O)N3CC(N4CCN(C(=O)c5nccs5)CC4)C3)cc(-c3cccc(C(F)(F)F)c3)c21
systemName: mutant MGL (Homo sapiens, UniProt Q99685, L169S/L176S)
qualitativeLabel: yes (1)

----------
2-AG accumulation, % of vehicle control at 0.1 µM reference
# systemName: MGL (Rattus norvegicus)
# Construct: one g rat brain was homogenized using a Polytron homogenizer; from tissue; host or cells: rat brain homogenate
# Sequence (Q8R431 whole entry): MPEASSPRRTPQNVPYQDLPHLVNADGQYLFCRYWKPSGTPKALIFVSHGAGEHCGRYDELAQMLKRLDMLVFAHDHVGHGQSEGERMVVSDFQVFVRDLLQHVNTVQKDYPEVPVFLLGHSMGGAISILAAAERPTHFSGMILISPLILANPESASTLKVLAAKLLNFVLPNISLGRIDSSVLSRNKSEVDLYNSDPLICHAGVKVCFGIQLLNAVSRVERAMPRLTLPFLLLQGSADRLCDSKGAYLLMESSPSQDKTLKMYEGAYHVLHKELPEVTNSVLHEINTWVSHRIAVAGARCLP
# protocol: 2-AG accumulation assay in rat brain homogenate
# Assay type: biochemical
# recordedConditions: rat brain homogenate; compound 0.1 μM; 2-AG accumulation as percent of vehicle; read-out: Rat Brain 2AG % VehCntrl (%) @ 0.1 μM
resultType: 2-AG accumulation, % of vehicle control at 0.1 µM (%)

itemSmiles: O=C(c1ccccc1)N1CCN(C2CN(C(=O)c3ccc(-c4ccccc4)cc3)C2)CC1
experimentalValue: 123
--
itemSmiles: Cc1cc(-c2cccc(C(F)(F)F)c2)ccc1C(=O)N1CC(N2CCN(C(=O)c3nccs3)CC2)C1
experimentalValue: 290
--
itemSmiles: O=C(c1ccc(-c2ccccc2)cc1)N1CC(N2CCN(C(=O)c3cscn3)CC2)C1
experimentalValue: 216
--
itemSmiles: COc1cc(C(=O)N2CC(N3CCN(C(=O)c4cscn4)CC3)C2)ccc1-c1ccc(F)c(Cl)c1
experimentalValue: 148
--
itemSmiles: O=C(c1ccc(-c2cccc(C(F)(F)F)c2)cc1)N1CC(N2CCN(C(=O)c3cscn3)CC2)C1
experimentalValue: 276
--
itemSmiles: O=C(c1nccs1)N1CCN(C2CN(C(=O)c3sc4cc(C(F)(F)F)ccc4c3Cl)C2)CC1
experimentalValue: 941
--
itemSmiles: Cc1nc(-c2ccc(Cl)cc2)sc1C(=O)N1CC(N2CCN(C(=O)c3nccs3)CC2)C1
experimentalValue: 235
--
itemSmiles: Cc1cc(-c2ccc(F)c(Cl)c2)ccc1C(=O)N1CC(N2CCN(C(=O)c3cscn3)CC2)C1
experimentalValue: 107

----------
# systemName: MGL (Rattus norvegicus)
# Construct: one g rat brain was homogenized using a Polytron homogenizer; from tissue; host or cells: rat brain homogenate
# protocol: 2-AG accumulation assay in rat brain homogenate
# Type: biochemical
# recordedConditions: rat brain homogenate; compound 0.1 μM; 2-AG accumulation as percent of vehicle; read-out: Rat Brain 2AG % VehCntrl (%) @ 0.1 μM
resultType: 2-AG accumulation, % of vehicle control at 0.1 µM (%)

molecule: O=C(c1cscn1)N1CCN(C2CN(C(=O)c3cc4ccc(C(F)(F)F)cc4s3)C2)CC1 [Cpd 337]
experimentalValue: 166
//
molecule: Cc1cc(-c2cccc(C(F)(F)F)c2)ccc1C(=O)N1CC(N2CCN(C(=O)c3cscn3)CC2)C1 [Cpd 240]
experimentalValue: 184
//
molecule: COc1cc(C(=O)N2CC(N3CCN(C(=O)c4cscn4)CC3)C2)ccc1-c1ccccc1 [Cpd 1253]
experimentalValue: 110
//
molecule: O=C(c1nccs1)N1CCN(C2CN(C(=O)c3ccc(-c4cccc(C(F)(F)F)c4)cc3Cl)C2)CC1 [Cpd 250]
experimentalValue: 472
//
molecule: O=C(c1ccc(-c2ccccc2)cc1)N1CC(N2CCN(C(=O)c3ccco3)CC2)C1 [Cpd 6]
experimentalValue: 238
//
molecule: O=C(c1cscn1)N1CCN(C2CN(C(=O)c3ccc(-c4ccc(F)c(Cl)c4)cc3Cl)C2)CC1 [Cpd 265]
experimentalValue: 126
//
molecule: O=C(c1ccc(OCc2ccccn2)c(Cl)c1)N1CC(N2CCN(C(=O)c3nccs3)CC2)C1 [Cpd 407]
experimentalValue: 127
//
molecule: Cc1nc(-c2cccc(C(F)(F)F)c2)sc1C(=O)N1CC(N2CCN(C(=O)c3cscn3)CC2)C1 [Cpd 485]
experimentalValue: 208
